Data credit: patent US4241056A

Reported values: MIC for streptococcus faecalis ATCC 10541, one per item.
Express your answer in µg/mL, writing the number without its unit.

Look at this compound and give its reported MIC. Cc1ncc(NC(=O)N[C@@H](C(=O)N[C@@H]2C(=O)N3[C@@H]2SC(C)(C)[C@@H]3C(=O)O)c2ccc(O)cc2)c(O)n1
10

Look at this compound and give its reported MIC. CC1(C)S[C@@H]2[C@H](NC(=O)[C@H](NC(=O)Nc3cnc(N4CCOCC4)nc3O)c3ccc(O)cc3)C(=O)N2[C@H]1C(=O)O
10

Look at this compound and give its reported MIC. CC1(C)S[C@@H]2[C@H](NC(=O)[C@H](NC(=O)Nc3cnc(NC4CCCCC4)nc3O)c3ccc(O)cc3)C(=O)N2[C@H]1C(=O)O
5

Look at this compound and give its reported MIC. CCCNc1ncc(NC(=O)N[C@@H](C(=O)N[C@@H]2C(=O)N3[C@@H]2SC(C)(C)[C@@H]3C(=O)O)c2ccc(O)cc2)c(O)n1
5

Look at this compound and give its reported MIC. CC1(C)S[C@@H]2[C@H](NC(=O)[C@H](NC(=O)Nc3cnc(Nc4ccc(Cl)c(Cl)c4)nc3O)c3ccc(O)cc3)C(=O)N2[C@H]1C(=O)O
2.5

Look at this compound and give its reported MIC. CC1(C)S[C@@H]2[C@H](NC(=O)[C@H](NC(=O)Nc3cnc(Nc4ccccc4)nc3O)c3ccc(O)cc3)C(=O)N2[C@H]1C(=O)O
5

Look at this compound and give its reported MIC. CC1(C)S[C@@H]2[C@H](NC(=O)[C@H](NC(=O)Nc3cnc(Cc4ccc(Cl)cc4)nc3O)c3ccc(O)cc3)C(=O)N2[C@H]1C(=O)O
10

Look at this compound and give its reported MIC. CC1(C)S[C@@H]2[C@H](NC(=O)[C@H](NC(=O)Nc3cnc(C4CC4)nc3O)c3ccc(O)cc3)C(=O)N2[C@H]1C(=O)O
10

Look at this compound and give its reported MIC. CN(C)C(=O)Nc1ncc(NC(=O)N[C@@H](C(=O)N[C@@H]2C(=O)N3[C@@H]2SC(C)(C)[C@@H]3C(=O)O)c2ccc(O)cc2)c(O)n1
80

Look at this compound and give its reported MIC. CC1(C)S[C@@H]2[C@H](NC(=O)[C@H](NC(=O)Nc3cncnc3O)c3ccc(O)cc3)C(=O)N2[C@H]1C(=O)O
10

Look at this compound and give its reported MIC. CC1(C)S[C@@H]2[C@H](NC(=O)[C@H](NC(=O)Nc3cnc(NCc4ccc(Cl)cc4)nc3O)c3ccc(O)cc3)C(=O)N2[C@H]1C(=O)O
10

Look at this compound and give its reported MIC. CNc1ncc(NC(=O)N[C@@H](C(=O)N[C@@H]2C(=O)N3[C@@H]2SC(C)(C)[C@@H]3C(=O)O)c2ccc(O)cc2)c(O)n1
10

Look at this compound and give its reported MIC. CC(=O)Nc1ncc(NC(=O)N[C@@H](C(=O)N[C@@H]2C(=O)N3[C@@H]2SC(C)(C)[C@@H]3C(=O)O)c2ccc(O)cc2)c(O)n1
10

Look at this compound and give its reported MIC. CC1(C)S[C@@H]2[C@H](NC(=O)[C@H](NC(=O)Nc3cnc(Nc4ccc(Cl)cc4)nc3O)c3ccc(O)cc3)C(=O)N2[C@H]1C(=O)O
5

---

Reported values: MIC for escherichia coli ATCC 9637, one per item.

Look at this compound and give its reported MIC. CC1(C)S[C@@H]2[C@H](NC(=O)[C@H](NC(=O)Nc3cnc(Nc4ccc(Cl)cc4)nc3O)c3ccc(O)cc3)C(=O)N2[C@H]1C(=O)O
1.25 µg/mL

Look at this compound and give its reported MIC. CC1(C)S[C@@H]2[C@H](NC(=O)[C@H](NC(=O)Nc3cnccc3O)c3ccccc3)C(=O)N2[C@H]1C(=O)O [S, reference compound]
10 µg/mL

Look at this compound and give its reported MIC. CC1(C)S[C@@H]2[C@H](NC(=O)[C@H](NC(=O)Nc3cncnc3O)c3ccc(O)cc3)C(=O)N2[C@H]1C(=O)O
2.5 µg/mL

Look at this compound and give its reported MIC. CC1(C)S[C@@H]2[C@H](NC(=O)[C@H](NC(=O)Nc3cnc(NC4CCCCC4)nc3O)c3ccc(O)cc3)C(=O)N2[C@H]1C(=O)O
0.6 µg/mL

Look at this compound and give its reported MIC. CC1(C)S[C@@H]2[C@H](NC(=O)[C@H](NC(=O)Nc3cnc(C4CC4)nc3O)c3ccc(O)cc3)C(=O)N2[C@H]1C(=O)O
2.5 µg/mL

Look at this compound and give its reported MIC. CC1(C)S[C@@H]2[C@H](NC(=O)[C@H](NC(=O)Nc3cnc(N4CCOCC4)nc3O)c3ccc(O)cc3)C(=O)N2[C@H]1C(=O)O
2.5 µg/mL

---

Kindly state ED50 for each of the entries shown.
test system: E. coli ATCC 11775; assay: In vivo activity against experimental infection in mice; parameters: species or system mouse (NMRI); conditions: Escherichia coli, ATCC11775, sc, 168 h, subcutaneous, 7 days observation, read-out: ED50 (dose at which 50% of the animals survived)

Look at this compound and give its reported ED50. CC1(C)S[C@@H]2[C@H](NC(=O)[C@H](NC(=O)Nc3cnc(Cc4ccc(Cl)cc4)nc3O)c3ccc(O)cc3)C(=O)N2[C@H]1C(=O)O
9 mg/kg

Look at this compound and give its reported ED50. CC1(C)S[C@@H]2[C@H](NC(=O)[C@H](NC(=O)Nc3cnc(Nc4ccccc4)nc3O)c3ccc(O)cc3)C(=O)N2[C@H]1C(=O)O
8 mg/kg

Look at this compound and give its reported ED50. CC1(C)S[C@@H]2[C@H](NC(=O)[C@H](NC(=O)N3CCNC3=O)c3ccccc3)C(=O)N2[C@H]1C(=O)O [Q, reference compound]
35 mg/kg

Look at this compound and give its reported ED50. CC1(C)S[C@@H]2[C@H](NC(=O)[C@H](NC(=O)Nc3cncnc3O)c3ccc(O)cc3)C(=O)N2[C@H]1C(=O)O
6 mg/kg

Look at this compound and give its reported ED50. CC(=O)Nc1ncc(NC(=O)N[C@@H](C(=O)N[C@@H]2C(=O)N3[C@@H]2SC(C)(C)[C@@H]3C(=O)O)c2ccc(O)cc2)c(O)n1
15 mg/kg

Look at this compound and give its reported ED50. Cc1ncc(NC(=O)N[C@@H](C(=O)N[C@@H]2C(=O)N3[C@@H]2SC(C)(C)[C@@H]3C(=O)O)c2ccc(O)cc2)c(O)n1
5 mg/kg

Look at this compound and give its reported ED50. CC1(C)S[C@@H]2[C@H](NC(=O)[C@H](NC(=O)Nc3cnc(C4CC4)nc3O)c3ccc(O)cc3)C(=O)N2[C@H]1C(=O)O
1.5 mg/kg

---

test: Serum (blood) level in rats; format: in vivo; conditions: rat, sc, subcutaneous 10 mg/kg, 120 min., average from 3 rats
Experimental readout: concentration at 2 h (ng/mL)
Express your answer in ng/mL, writing the number without its unit.

Look at this molecule and give its reported concentration at 2 h. CC1(C)S[C@@H]2[C@H](NC(=O)[C@H](NC(=O)Nc3cnc(Nc4ccccc4)nc3O)c3ccc(O)cc3)C(=O)N2[C@H]1C(=O)O
1500

Look at this molecule and give its reported concentration at 2 h. CC1(C)S[C@@H]2[C@H](NC(=O)[C@H](NC(=O)Nc3cncnc3O)c3ccc(O)cc3)C(=O)N2[C@H]1C(=O)O
400

Look at this molecule and give its reported concentration at 2 h. CC1(C)S[C@@H]2[C@H](NC(=O)[C@H](NC(=O)Nc3cnc(C4CC4)nc3O)c3ccc(O)cc3)C(=O)N2[C@H]1C(=O)O
400

Look at this molecule and give its reported concentration at 2 h. Cc1ncc(NC(=O)N[C@@H](C(=O)N[C@@H]2C(=O)N3[C@@H]2SC(C)(C)[C@@H]3C(=O)O)c2ccc(O)cc2)c(O)n1
1100

Look at this molecule and give its reported concentration at 2 h. CC1(C)S[C@@H]2[C@H](NC(=O)[C@H](NC(=O)N3CCNC3=O)c3ccccc3)C(=O)N2[C@H]1C(=O)O [Q, reference compound]
400

Look at this molecule and give its reported concentration at 2 h. CC1(C)S[C@@H]2[C@H](NC(=O)[C@H](NC(=O)Nc3cnc(Cc4ccc(Cl)cc4)nc3O)c3ccc(O)cc3)C(=O)N2[C@H]1C(=O)O
300

Look at this molecule and give its reported concentration at 2 h. CC(=O)Nc1ncc(NC(=O)N[C@@H](C(=O)N[C@@H]2C(=O)N3[C@@H]2SC(C)(C)[C@@H]3C(=O)O)c2ccc(O)cc2)c(O)n1
7700

---

Kindly state MIC for each of the entries shown.
tested on: escherichia coli 12593/74 (β-lactamase carrier); assay: MIC, serial dilution test in the microtiter system; type: cell-based; details: 18 h, E. coli 12593/74 (β-lactamase carrier), 37° C., 18-20 hours

Request: MIC, test system escherichia coli 12593/74 (β-lactamase carrier), entry CCCNc1ncc(NC(=O)N[C@@H](C(=O)N[C@@H]2C(=O)N3[C@@H]2SC(C)(C)[C@@H]3C(=O)O)c2ccc(O)cc2)c(O)n1
80 µg/mL

Request: MIC, test system escherichia coli 12593/74 (β-lactamase carrier), entry Cc1ncc(NC(=O)N[C@@H](C(=O)N[C@@H]2C(=O)N3[C@@H]2SC(C)(C)[C@@H]3C(=O)O)c2ccc(O)cc2)c(O)n1
80 µg/mL

Request: MIC, test system escherichia coli 12593/74 (β-lactamase carrier), entry CC1(C)S[C@@H]2[C@H](NC(=O)[C@H](NC(=O)Nc3cnc(NC4CCCCC4)nc3O)c3ccc(O)cc3)C(=O)N2[C@H]1C(=O)O
> 80 µg/mL

Request: MIC, test system escherichia coli 12593/74 (β-lactamase carrier), entry CC1(C)S[C@@H]2[C@H](NC(=O)[C@H](NC(=O)Nc3cnc(Nc4ccccc4)nc3O)c3ccc(O)cc3)C(=O)N2[C@H]1C(=O)O
> 80 µg/mL

Request: MIC, test system escherichia coli 12593/74 (β-lactamase carrier), entry CC1(C)S[C@@H]2[C@H](NC(=O)[C@H](NC(=O)Nc3cnc(Nc4ccc(Cl)c(Cl)c4)nc3O)c3ccc(O)cc3)C(=O)N2[C@H]1C(=O)O
10 µg/mL

Request: MIC, test system escherichia coli 12593/74 (β-lactamase carrier), entry CC(=O)Nc1ncc(NC(=O)N[C@@H](C(=O)N[C@@H]2C(=O)N3[C@@H]2SC(C)(C)[C@@H]3C(=O)O)c2ccc(O)cc2)c(O)n1
> 80 µg/mL
